- assayText: Apparent oral clearance in Swiss Webster mouse at 10 mg/kg, po
- Assay type: ADME, organism-based
- Parameters: dose 10 mg/kg, route oral
- runConditions: in vivo
parameter: CL/F (mL/min/kg)
Entry rule: numbers only, all in mL/min/kg.

Q: Which CL/F value belongs to `CC1(C)CC(=O)c2c(C(F)(F)F)nn(-c3ccc(C(N)=O)c(N[C@H]4CC[C@H](OC(=O)CN)CC4)c3)c2C1.CS(=O)(=O)O` ?
Ans: 42

---

- assayText: Half life in Swiss Webster mouse at 10 mg/kg, iv
- Format: ADME, organism-based
- Parameters: dose 10 mg/kg, route intravenous
- runConditions: in vivo
parameter: half-life (h)
Entry rule: numbers only, all in h.

Q: Which half-life value belongs to `CC1(C)CC(=O)c2c(C(F)(F)F)nn(-c3ccc(C(N)=O)c(N[C@H]4CC[C@H](OC(=O)CN)CC4)c3)c2C1.CS(=O)(=O)O` ?
Ans: 2.6

---

- assayText: Solubility at pH 4 to […]
- Format: physicochemical
- runConditions: buffer
parameter: solubility (µg/mL)
Entry rule: numbers only, all in µg/mL.

Q: Which solubility value belongs to `CC1(C)CC(=O)c2c(C(F)(F)F)nn(-c3ccc(C(N)=O)c(N[C@H]4CC[C@H](OC(=O)CN)CC4)c3)c2C1.CS(=O)(=O)O` ?
Ans: 1000

---

- assayText: Cmax in Swiss Webster mouse at 10 mg/kg, iv
- Assay type: ADME, organism-based
- Design: dose 10 mg/kg, route intravenous
- runConditions: in vivo
parameter: Cmax
Answer with the figure and its unit, nothing else.

Q: Which Cmax value belongs to `CC1(C)CC(=O)c2c(C(F)(F)F)nn(-c3ccc(C(N)=O)c(N[C@H]4CC[C@H](OC(=O)CN)CC4)c3)c2C1.CS(=O)(=O)O` ?
Ans: 4460 ng/mL

---

IC50 values, listed per item
- System: NCI-H460
- assayText: Antiproliferative activity against human NCI-H460 cells after 72 to 144 hrs by cyquant DNA dye method
- Type: functional, cell-based
Answer with the figure and its unit, nothing else.

Completed entries (count: 3):
Cc1cn(-c2ccc(C(N)=O)c(N[C@H]3CC[C@H](O)CC3)c2)c2c1C(=O)CC(C)(C)C2
248 nM
CC1(C)CC(=O)c2c(C(F)(F)F)nn(-c3ccc(C(N)=O)c(N[C@H]4CC[C@H](O)CC4)c3)c2C1 [SNX-2112]
18 nM
C=CCNC1=C2C[C@@H](C)C[C@H](OC)[C@H](O)[C@@H](C)/C=C(\C)[C@H](OC(N)=O)[C@@H](OC)/C=C\C=C(/C)C(=O)NC(=CC1=O)C2=O [TANESPIMYCIN]
255 nM

Q: Lab request: please report IC50 under test system NCI-H460 for `CC1(C)CC(=O)c2c(C(F)(F)F)nn(-c3ccc(C(N)=O)c(N[C@H]4CC[C@H](OC(=O)CN)CC4)c3)c2C1.CS(=O)(=O)O`
Ans: 215 nM

---

- assayText: Binding affinity to pig spleen Hsp90 ATPase pocket by Bradford assay
- Format: tissue-based, Sus scrofa
parameter: Kd

Completed entries (count: 5):
CSCCNc1cc(-n2nc(C)c3c2CC(C)(C)CC3=O)ccc1C(N)=O
63 nM
Cc1cn(-c2ccc(C(N)=O)c(N[C@@H](C)c3ccccc3)c2)c2c1C(=O)CC(C)(C)C2
1020 nM
COc1cc(Nc2cc(-n3c(C)cc4c3CC(C)(C)CC4=O)ccc2C(N)=O)cc(OC)c1OC
220 nM
CC1(C)CC(=O)c2c(CC3CC3)nn(-c3ccc(C(N)=O)c(N[C@H]4CC[C@H](O)CC4)c3)c2C1
41 nM
Cc1nn(-c2ccc(C(N)=O)c(NC3CC=CC3)c2)c2c1C(=O)CC(C)(C)C2
15 nM

Q: Which Kd value belongs to `Cc1cn(-c2ccc(C(N)=O)c(N3CCNCC3)c2)c2c1C(=O)CC(C)(C)C2` ?
Ans: 843 nM

Q: Another molecule: `Cc1nn(-c2ccc(C(N)=O)c(NCC3CC3)c2)c2c1C(=O)CC(C)(C)C2`
Ans: 51 nM

Q: Another molecule: Cc1nn(-c2ccc(C(N)=O)c(NC(C)S(C)(=O)=O)c2)c2c1C(=O)CC(C)(C)C2 (centres undefined)
Ans: 14 nM

Q: Another molecule: `CCCCCc1cc(-n2c(C)cc3c2CC(C)(C)CC3=O)ccc1C(N)=O`
Ans: 1960 nM

Q: Another molecule: `Cc1cc2c(n1-c1ccc(C(N)=O)cc1)CC(C)(C)CC2=O`
Ans: 3730 nM

Q: Another molecule: `COCC(COC)Nc1cc(-n2nc(C(F)(F)F)c3c2CC(C)(C)CC3=O)ccc1C(N)=O`
Ans: 78 nM

Q: Another molecule: `CC1(C)CC(=O)c2c(C(F)(F)F)nn(-c3ccc(C(N)=O)c(N[C@H]4CC[C@@H](O)CC4)c3)c2C1`
Ans: 530 nM

Q: Another molecule: `Cc1nn(-c2ccc(C(N)=O)c(N[C@H]3CC[C@H](O)CC3)c2)c2c1C(=O)CC(C)(C)C2`
Ans: 16 nM

---

- assayText: Half life in Swiss Webster mouse at 25 mg/kg, po
- Format: ADME, organism-based
- Design: dose 25 mg/kg, route oral
- runConditions: in vivo
parameter: half-life (h)
Entry rule: numbers only, all in h.

Q: Which half-life value belongs to `CC1(C)CC(=O)c2c(C(F)(F)F)nn(-c3ccc(C(N)=O)c(N[C@H]4CC[C@H](OC(=O)CN)CC4)c3)c2C1.CS(=O)(=O)O` ?
Ans: 2.9

---

Kd values, listed per item
- assayText: Binding affinity to pig spleen Hsp90 ATPase pocket by Bradford assay
- Assay type: tissue-based, Sus scrofa
Entry rule: numbers only, all in µM.

Completed entries (count: 6):
COc1cc(Nc2cc(-n3ccc4c3CC(C)(C)CC4=O)ccc2C(N)=O)cc(OC)c1OC
0.00059
COc1ccc(Nc2cc(-n3c(C)cc4c3CC(C)(C)CC4=O)ccc2C(N)=O)cc1
0.69
CC1(C)CC(=O)c2c(C(F)F)nn(-c3ccc(C(N)=O)c(NC4CCSCC4)c3)c2C1
0.011
C=CCNC1=C2C[C@@H](C)C[C@H](OC)[C@H](O)[C@@H](C)/C=C(\C)[C@H](OC(N)=O)[C@@H](OC)/C=C\C=C(/C)C(=O)NC(=CC1=O)C2=O
0.087
Cc1cn(-c2ccc(C(N)=O)c(NCCN3CCOCC3)c2)c2c1C(=O)CC(C)(C)C2
0.294
CCc1nn(-c2ccc(C(N)=O)c(N[C@H]3CC[C@H](O)CC3)c2)c2c1C(=O)CC(C)(C)C2
0.02

Attention now turns to another entry.
Q: Which Kd value belongs to `CC1(C)CC(=O)c2c(C(F)(F)F)nn(-c3ccc(C(N)=O)c(N[C@H]4CC[C@H](O)CC4)c3)c2C1` ?
Ans: 0.016

---

- assayText: Half life in Swiss Webster mouse at 50 mg/kg, po
- Assay type: ADME, organism-based
- Parameters: dose 50 mg/kg, route oral
- runConditions: in vivo
parameter: half-life (min)
Entry rule: numbers only, all in min.

Q: Which half-life value belongs to `CC1(C)CC(=O)c2c(C(F)(F)F)nn(-c3ccc(C(N)=O)c(N[C@H]4CC[C@H](OC(=O)CN)CC4)c3)c2C1.CS(=O)(=O)O` ?
Ans: 198

---

- assayText: Tmax in Swiss Webster mouse at 50 mg/kg, po
- Type: ADME, organism-based
- Design: dose 50 mg/kg, route oral
- runConditions: in vivo
parameter: Tmax (h)
Entry rule: numbers only, all in h.

Q: Which Tmax value belongs to `CC1(C)CC(=O)c2c(C(F)(F)F)nn(-c3ccc(C(N)=O)c(N[C@H]4CC[C@H](OC(=O)CN)CC4)c3)c2C1.CS(=O)(=O)O` ?
Ans: 2

---

- assayText: Solubility of the compound
- Format: physicochemical
parameter: solubility

Q: Which solubility value belongs to CC1(C)CC(=O)c2c(C(F)(F)F)nn(-c3ccc(C(N)=O)c(N[C@H]4CC[C@H](O)CC4)c3)c2C1 [SNX-2112] ?
Ans: 170 µM

---

- assayText: Oral bioavailability in mouse
- Format: ADME, organism-based
- runConditions: in vivo
parameter: bioavailability
Answer with the figure and its unit, nothing else.

Q: Which bioavailability value belongs to `CC1(C)CC(=O)c2c(C(F)(F)F)nn(-c3ccc(C(N)=O)c(N[C@H]4CC[C@H](O)CC4)c3)c2C1` ?
Ans: 40%

---

IC50 values, listed per item
- targetOrTestSystem: Heat shock protein HSP90 (Homo sapiens, UniProt P07900+P08238)
- Format: cell-based
- runConditions: au565
Entry rule: numbers only, all in nM.

Completed entries (count: 4):
Cc1cn(-c2ccc(C(N)=O)c(N[C@H]3CC[C@H](O)CC3)c2)c2c1C(=O)CC(C)(C)C2
7
Cc1nn(-c2ccc(C(N)=O)c(NC3CCOCC3)c2)c2c1C(=O)CC(C)(C)C2
50
CC1(C)CC(=O)c2c(C(F)(F)F)nn(-c3ccc(C(N)=O)c(NCCCN4CCCC4=O)c3)c2C1
264
CC1(C)CC(=O)c2c(C(F)F)nn(-c3ccc(C(N)=O)c(NC4CCSCC4)c3)c2C1
35

Q: Lab request: please report IC50 under test system Heat shock protein HSP90 (Homo sapiens, UniProt P07900+P08238) for COCC(C)Nc1cc(-n2nc(C)c3c2CC(C)(C)CC3=O)ccc1C(N)=O (centres undefined)
Ans: 115

Q: Another compound: `COc1cc(Nc2cc(-n3cc(C)c4c3CC(C)(C)CC4=O)ccc2C(N)=O)cc(OC)c1OC`
Ans: 46

Q: Another compound: `CC1(C)CC(=O)c2c(C(F)(F)F)nn(-c3ccc(C(N)=O)c(N[C@H]4CC[C@H](OC(=O)CN)CC4)c3)c2C1.CS(=O)(=O)O`
Ans: 5

Q: Another compound: `COc1ccc(Nc2cc(-n3c(C)cc4c3CC(C)(C)CC4=O)ccc2C(N)=O)cc1`
Ans: 1590

Q: Another compound: `Cc1nn(-c2ccc(C(N)=O)c(NCC3CC3)c2)c2c1C(=O)CC(C)(C)C2`
Ans: 184

Data credit: ChEMBL document CHEMBL1158466
